- Experimental System: HIV-1 fusion (gp160 induced cell-cell fusion; HeLa P4 cell line expressing CCR5 and CD4 / CHO-Tat10 cell line) (Homo sapiens)
- Assay: gp160 induced cell-cell fusion assay
- Assay type: cell-based
- Test Conditions: HeLa P4 / CHO-Tat10 cells, read-out: IC50
- Description: Biol., 60, 147-52 (1996); and/or by using the intracellular calcium mobilisation assays as described by the same authors, and/or inhibiting cell fusion following procedures disclosed in Bradley et al., J Biomol Screen 9, 516-24 (2004). The gp160 induced cell-cell fusion assay uses a HeLa P4 cell line and a CHO-Tat10 cell line. The HeLa P4 cell line expresses CCR5 and CD4 and has been transfected with HIV-1 LTR-β-Galactosidase. […]
Definition: the class of an entry is the range in zone 1 (below 0.5 nM), zone 2 (0.5 nM to below 10 nM), zone 3 (10 nM or more) that contains its IC50.

Worked examples, 4 compounds total:
# Compound, Group Label
rows = [
    ("CC(C)c1nccn1C1CCN(C(C)C[C@H](NC(=O)C2CCC(F)(F)CC2)c2ccccc2)CC1 (some centres unmarked)", "zone 1"),
    ("CC(=O)N1CCc2c(nc(C)n2C2CCN(C(C)C[C@H](NC(=O)C3CC3)c3cccc(F)c3)CC2)C1 (some centres unmarked) [Example 103]", "zone 1"),
    ("CC(=O)N1CCc2nc(C)n(C3CCN(C(C)C[C@H](NC(=O)C4(C)CC4)c4cccc(F)c4)CC3)c2C1 (some centres unmarked)", "zone 2"),
    ("CC(=O)N1CCc2c(nc(C)n2C2CCN(C(C)C[C@H](NC(=O)C3CC3)c3cccc(F)c3)CC2)C1 (single isomer, unassigned) [Example 101]", "zone 3"),
]

Please turn your attention to the following entry.
input: Hi, small favor: classify CC(=O)N1CCc2nc(C)n(C3CCN(C(C)C[C@H](NC(=O)OC(C)C)c4ccccc4)CC3)c2C1 (some centres unmarked) by its IC50 when you get a moment.
output: zone 2

###

- Experimental System: HIV-1 fusion (gp160 induced cell-cell fusion; HeLa P4 cell line expressing CCR5 and CD4 / CHO-Tat10 cell line) (Homo sapiens, UniProt P51681)
- Sequence (P51681 whole entry, the tested form may be a part): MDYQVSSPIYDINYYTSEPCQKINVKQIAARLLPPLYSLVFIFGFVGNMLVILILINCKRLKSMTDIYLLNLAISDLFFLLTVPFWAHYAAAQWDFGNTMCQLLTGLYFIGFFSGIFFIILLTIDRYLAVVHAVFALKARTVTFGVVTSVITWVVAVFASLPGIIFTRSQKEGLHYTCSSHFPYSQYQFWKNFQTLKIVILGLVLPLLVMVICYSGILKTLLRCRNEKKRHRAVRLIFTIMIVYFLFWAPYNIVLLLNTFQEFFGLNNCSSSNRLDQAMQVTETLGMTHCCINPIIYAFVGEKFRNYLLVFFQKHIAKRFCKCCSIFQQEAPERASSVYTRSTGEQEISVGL
- Assay: gp160 induced cell-cell fusion assay
- Type: cell-based
- Test Conditions: HeLa P4 / CHO-Tat10 cells, read-out: IC50
Assay Endpoint: IC50
Respond with the figure and its unit, in that order.

input: Which IC50 value belongs to COC(=O)N[C@@H](CC(C)N1CCC(n2c(C)nc3c2CN(C(=O)OC)CC3)CC1)c1ccccc1 (single isomer, unassigned) [Example 13A] ?
output: 37.1 nM

input: Repeat with CC(=O)N1CCc2nc(C)n(C3CCN(C(C)C[C@H](NC(=O)OC(C)C)c4cccc(F)c4)CC3)c2C1 (stereo partly drawn) [Example 61]
output: 1.6 nM

input: Repeat with COC(=O)N1CCc2nc(C)n(C3CCN(C(C)CC(NC(=O)C(C)C)c4ccccc4)CC3)c2C1 (mixture of isomers) [Example 11]
output: 0.6 nM

input: Repeat with COC(=O)N1CCc2nc(C)n(C3CCN(C(C)CC(NC(=O)C4CC4)c4ccccc4)CC3)c2C1 (mixture of isomers) [Example 12]
output: 0.6 nM

input: Repeat with CCOC(=O)N1CCc2c(nc(C)n2C2CCN(C(C)C[C@H](NC(=O)C3CC3)c3cccc(F)c3)CC2)C1 (single isomer, unassigned) [Example 97]
output: 10 nM

input: Repeat with CC(C[C@H](NC(=O)C1CCC(F)(F)CC1)c1ccccc1)N1CCC(c2nnnn2C(C)C)CC1 (single isomer, unassigned) [Example 126]
output: 21.8 nM
